- Tested on: SN12C renal
- experimental-details: NCI tumour cell line growth inhibition, 48 h
measurement-label: log10 TGI (log10 of the value in µM)
Plainly stated, the numbers are log10 of TGI given in µM.

molecule	log10 TGI
OC1(C(Sc2ccccc2)Sc2ccccc2)CCCCCC1	1.59
COc1ccc2c(c1)OCC1c3cc(OC)c4ccccc4c3OC21 (configuration not stated)	1.89
CC(C)(C)N1CC1CNC(=O)C(=O)NCC1CN1C(C)(C)C (configuration not stated)	1.20
CCN1CCN(Cc2ccc(NC(=O)Nc3nc(-c4cc(OC)c(OC)c(OC)c4)cs3)cc2C(F)(F)F)CC1	0.50

For the next question, use this molecule.
Fill in: log10 TGI of O=C1c2ccccc2C(=O)c2c1oc1cc(O)c(Cl)cc21 is ___
1.35

----------
- System: EKVX NSCLC
- experimental-details: NCI tumour cell line growth inhibition, 48 h
measurement-label: TGI

These solved cases illustrate the format of a correct answer.
>>> print(df.to_string())
                                   molecule  target_under_test  assay_value
0  C=CC(C)(C)NC(C(=O)N1CCC[C@H]1c1nc(-c2nc(C(=O)OCC=C(C)C)c(C)o2)c(C)o1)C(C)C (stereo partly specified)         EKVX NSCLC    > 90.1 µM
1  N#CC1=C(N)N=C(N2CCOCC2)C(C#N)C12Nc1ccccc1S2 (stereo unspecified)         EKVX NSCLC      15.6 µM
2  COc1ccc(COCC[C@H](C)OC2OC(CO[Si](C)(C)C(C)(C)C)C(O)C(O)C2O)cc1 (stereo partly specified)         EKVX NSCLC     > 100 µM
3  CCCCCCCCCCCCCCCCCCN(C)CC(COC)OP(=O)([O-])OCC[N+](C)(C)C (stereo unspecified)         EKVX NSCLC      28.1 µM
4  CCCCC(CC)C(=O)Oc1ccc(C(=O)c2ccccc2)c(O)c1 (stereo unspecified)         EKVX NSCLC     > 100 µM

Fill in: TGI of O=C1CSC(c2ccccc2)N1c1ccc(-c2ccc(-n3c(-c4ccccc4)nc4ccccc4c3=O)cc2)cc1 (stereo unspecified) is ___
> 100 µM

Fill in: TGI of C[C@@]12CC[C@@H](O)C[C@@H]1CC[C@H]1[C@H]2CC[C@@]2(C)[C@H](c3ccc(=O)oc3)CC[C@@]12O is ___
0.0104 µM

Fill in: TGI of c1cc[n+](Cc2c3ccccc3cc3c2ccc2ccccc23)cc1 is ___
> 100 µM

Fill in: TGI of Nc1ccc(Oc2ccc(C34CC5C6CC7(c8ccc(Oc9ccc(N)cc9)cc8)CC5C(C3)C(C7)C6C4)cc2)cc1 is ___
> 100 µM

Fill in: TGI of CCCCCc1cc(/C=C2/N=C(c3ccc[nH]3)C=C2OC)[nH]c1C is ___
1.4 µM

Fill in: TGI of Cc1csc2nc(-c3cc([N+](=O)[O-])c(Cl)cc3Cl)c(/C=N/N=C(N)N)n12 is ___
38.2 µM

Fill in: TGI of COc1ccccc1/C=C1\CCC(Cc2ccccc2)(CN(C)C)C1=O (stereo unspecified) is ___
34.7 µM
